The reported measurements were obtained from ChEMBL document CHEMBL3272223.

experimentalSystem: Dihydrofolate reductase (Lactobacillus casei)
Sequence (P00381 whole entry): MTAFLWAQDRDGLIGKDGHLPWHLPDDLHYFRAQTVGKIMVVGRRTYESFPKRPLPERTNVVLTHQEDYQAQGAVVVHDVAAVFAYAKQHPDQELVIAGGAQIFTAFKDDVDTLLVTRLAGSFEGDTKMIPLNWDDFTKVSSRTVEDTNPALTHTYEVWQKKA
assayProcedure: Inhibition of DCM-resistant Lactobacillus casei DHFR
reportedConditions: read-out: I50
pIC50: −log10 of the molar value.
propertyLabel: pIC50

INSERT INTO measurements (itemsmiles, experimentalsystem, datavalue) VALUES
  ('Nc1nc(N)c2nc(COc3ccc(C(=O)N[C@@H](CCC(=O)O)C(=O)O)cc3)cnc2n1', 'Dihydrofolate reductase (Lactobacillus casei)', 8.35);
